# assayed.system: Xanthine oxidase (XO; from bovine milk) (Bos taurus, UniProt P80457)
# Construct: Xanthine oxidase (XO; from bovine milk); purchased Sigma-Aldrich; host or cells: bovine milk
# Sequence (P80457 whole entry): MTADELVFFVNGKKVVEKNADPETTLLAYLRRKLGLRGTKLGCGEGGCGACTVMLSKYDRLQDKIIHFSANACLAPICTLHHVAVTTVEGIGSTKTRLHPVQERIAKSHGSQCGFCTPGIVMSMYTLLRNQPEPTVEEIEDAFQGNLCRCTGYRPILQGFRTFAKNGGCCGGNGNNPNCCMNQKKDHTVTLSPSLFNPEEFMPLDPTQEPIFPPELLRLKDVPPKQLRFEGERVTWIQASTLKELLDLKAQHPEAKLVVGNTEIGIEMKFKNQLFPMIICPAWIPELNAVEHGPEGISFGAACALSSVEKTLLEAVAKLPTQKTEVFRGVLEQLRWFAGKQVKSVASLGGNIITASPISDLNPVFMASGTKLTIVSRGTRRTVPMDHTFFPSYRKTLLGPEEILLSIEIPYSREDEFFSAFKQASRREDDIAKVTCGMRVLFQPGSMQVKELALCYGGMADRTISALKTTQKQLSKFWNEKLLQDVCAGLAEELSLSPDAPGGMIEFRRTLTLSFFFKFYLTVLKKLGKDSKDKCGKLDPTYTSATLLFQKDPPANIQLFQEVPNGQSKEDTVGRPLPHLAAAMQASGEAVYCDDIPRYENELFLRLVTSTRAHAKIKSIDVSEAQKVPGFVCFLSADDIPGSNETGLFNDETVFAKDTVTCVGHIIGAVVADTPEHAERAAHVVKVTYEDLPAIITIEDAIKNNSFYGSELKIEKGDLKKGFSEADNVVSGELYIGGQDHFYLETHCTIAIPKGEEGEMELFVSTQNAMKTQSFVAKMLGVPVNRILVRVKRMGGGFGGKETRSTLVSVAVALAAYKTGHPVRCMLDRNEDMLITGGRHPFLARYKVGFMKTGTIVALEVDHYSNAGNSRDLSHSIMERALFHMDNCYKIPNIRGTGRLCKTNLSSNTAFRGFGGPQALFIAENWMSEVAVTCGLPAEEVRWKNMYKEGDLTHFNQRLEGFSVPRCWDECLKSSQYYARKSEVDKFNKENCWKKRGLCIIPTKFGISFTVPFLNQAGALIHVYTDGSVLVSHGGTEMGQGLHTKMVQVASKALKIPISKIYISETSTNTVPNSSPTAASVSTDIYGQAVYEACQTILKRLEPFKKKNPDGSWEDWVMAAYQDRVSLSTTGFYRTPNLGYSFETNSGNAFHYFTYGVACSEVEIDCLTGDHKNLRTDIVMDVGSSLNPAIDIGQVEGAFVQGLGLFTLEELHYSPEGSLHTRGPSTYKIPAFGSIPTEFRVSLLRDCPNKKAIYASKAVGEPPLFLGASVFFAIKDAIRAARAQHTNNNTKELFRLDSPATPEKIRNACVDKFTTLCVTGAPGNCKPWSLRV
# experiment.summary: XO-catalyzed 6-mercaptopurine oxidation (6-thiouric acid formation), HPLC
# Assay type: biochemical
# condition.label: substrate 6MP 5 μM; read-out: IC50 values on 6MP oxidation
pIC50: −log10 of the molar value.
property.label: pIC50

The reported value for O=c1cc(-c2ccc(O)cc2)oc2cc(O)cc(O)c12 [Apigenin, 5,7,4’-trihydroxyflavone] in terms of pIC50 is > 7.00

----------
Recorded pIC50, one value per entry.
# assayed.system: Xanthine oxidase (XO; from bovine milk) (Bos taurus)
# Construct: Xanthine oxidase (XO; from bovine milk); purchased Sigma-Aldrich; host or cells: bovine milk
# experiment.summary: XO-catalyzed xanthine oxidation (uric acid formation), HPLC
# Format: biochemical
# condition.label: substrate xanthine 5 μM; inhibitor 0–20 μM
# Method: Chrysin-7-glucuronide (C7G) and 6-thiouric acid were purchased from Carbosynth (Berkshire, UK). Chrysin-7-sulfate (C7S) was synthetized as described. […] To test the inhibitory effects of flavonoids and their metabolites on the XO-catalyzed oxidation of xanthine and 6MP, the previously reported methods were applied without modifications. […] IC50 values were evaluated by sigmoidal fitting, employing GraphPad Prism 8 software (San Diego, CA, USA). […]
A value of pIC50 is the negative decimal logarithm of a concentration given in moles per litre.

See these solved cases before continuing.
- O=c1cc(-c2ccc(O)c(O)c2)oc2cc(O)cc(O)c12 [Luteolin, 5,7,3′,4′-tetrahydroxyflavone]: 6.80
- O=c1c(O)c(-c2ccc(O)c(O)c2)oc2cc(O)ccc12 [Fisetin, 3,7,3′,4′-tetrahydroxyflavone]: 6.07
- COc1cc(-c2oc3cc(O)ccc3c(=O)c2O)ccc1O: 6.17

Let us move to another entry and its pIC50.
Item: O=c1cc(-c2ccc(O)cc2)oc2cc(O)cc(O)c12 [Apigenin, 5,7,4’-trihydroxyflavone] | System: Xanthine oxidase (XO; from bovine milk) (Bos taurus) | pIC50: 6.57
